System: IL6 secretion, OCI-LY3 cells
procedure_details: Human IL6 Mesoscale assay (OCI-LY3)
Format: cell-based
condition_details: 24 h incubation
assay_readout: pIC50
Scale: pIC50 equals -log10([C]), with [C] in mol/L.

| molecule | assay_readout | value_measured |
| --- | --- | --- |
| Cc1coc(-c2ncc(NC(=O)c3cnn(-c4ccc(F)c5nccn45)c3C(F)(F)F)cc2Cl)n1 [Cpd 10] | pIC50 | 6.91 |

Incoming: Any idea what its pIC50 is? The molecule is O=C(Nc1ccnc(C(F)(F)F)c1)c1cnn(-c2ccc(Cl)n3nccc23)c1C(F)(F)F [Cpd 14]
Outgoing: 6.94

Incoming: Try this molecule next: O=C(Nc1cnc([C@@H]2CCCO2)c(Cl)c1)c1cnn(-c2ccc(Cl)n3nccc23)c1C(F)(F)F (single isomer, unassigned) [Cpd 21]
Outgoing: 6.61

Incoming: Try this molecule next: N#Cc1ccc(-n2ncc(C(=O)Nc3cnc(-n4nccn4)c(Cl)c3)c2C(F)(F)F)c2ccnn12 [Cpd 13]
Outgoing: 7.66

Incoming: Try this molecule next: NC(=O)c1ccc(-n2ncc(C(=O)Nc3cnc(-n4nccn4)c(Cl)c3)c2C(F)(F)F)c2ccnn12 [Cpd 16]
Outgoing: 7.38

Incoming: Try this molecule next: Cc1ccc(-n2ncc(C(=O)Nc3cnc(-n4nccn4)c(Cl)c3)c2C(F)(F)F)n2ccnc12 [Cpd 7]
Outgoing: 6.66

Incoming: Try this molecule next: N#Cc1ccc(-n2ncc(C(=O)Nc3ccnc(C(F)(F)F)c3)c2C(F)(F)F)c2ccnn12 [Cpd 11]
Outgoing: 6.86

Incoming: Try this molecule next: N#Cc1ccc(-n2ncc(C(=O)Nc3cnc(-n4nccn4)c(Cl)c3)c2C(F)(F)F)n2ccnc12 [Cpd 2]
Outgoing: 7.08

----------
Test system: IL10 secretion, OCI-LY3 cells
procedure_details: Human IL10 Mesoscale assay (OCI-LY3)
Type: cell-based
condition_details: 24 h incubation
assay_readout: pIC50
Scale: pIC50 equals -log10([C]), with [C] in mol/L.

Some compounds with known pIC50 results, for comparison:
| compound | value_measured |
| --- | --- |
| NC(=O)c1ccc(-n2ncc(C(=O)Nc3cnc(-n4nccn4)c(Cl)c3)c2C(F)(F)F)n2ccnc12 | 7.06 |
| Cc1coc(-c2ncc(NC(=O)c3cnn(-c4ccc(F)c5nccn45)c3C(F)(F)F)cc2Cl)n1 | 7.64 |
| NC(=O)c1ccc(-n2ncc(C(=O)Nc3cnc(-n4nccn4)c(Cl)c3)c2C(F)(F)F)c2ccnn12 | 7.39 |
| CS(=O)(=O)c1ncc(NC(=O)c2cnn(-c3ccc(F)c4nccn34)c2C(F)(F)F)cc1C(F)(F)F | 6.43 |
| N#Cc1ccc(-n2ncc(C(=O)Nc3ccnc(C(F)(F)F)c3)c2C(F)(F)F)c2ccnn12 | 7.19 |
| NC(=O)c1ccc(-n2ncc(C(=O)Nc3ccnc(C(F)(F)F)c3)c2C(F)(F)F)c2ccnn12 | 6.81 |
| O=C(Nc1cnc(-n2cccn2)c(Cl)c1)c1cnn(-c2ccc(F)c3nccn23)c1C(F)(F)F | 6.94 |
| Cc1cnc(-c2ncc(NC(=O)c3cnn(-c4ccc(F)c5nccn45)c3C(F)(F)F)cc2Cl)o1 | 6.89 |

Incoming: Any idea what its pIC50 is? The compound is "N#Cc1ccc(-n2ncc(C(=O)Nc3cnc(-n4nccn4)c(Cl)c3)c2C(F)(F)F)c2ccnn12"
Outgoing: 7.72

Incoming: Try this compound next: "O=C(Nc1ccnc(C(F)(F)F)c1)c1cnn(-c2ccc(Cl)n3nccc23)c1C(F)(F)F"
Outgoing: 6.30

Incoming: Try this compound next: "Cc1ccc(-n2ncc(C(=O)Nc3cnc(-n4nccn4)c(Cl)c3)c2C(F)(F)F)n2ccnc12"
Outgoing: 7.19

Incoming: Try this compound next: "N#Cc1ccc(-n2ncc(C(=O)Nc3cnc(-n4nccn4)c(Cl)c3)c2C(F)(F)F)n2ccnc12"
Outgoing: 7.33

Reference source for all entries: patent US10888550B2
